system: NLK; details: Compound Concentration (nM):1000;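 further: KINOMEscan scanMAX binding as percent activity remaining versus control; lower means stronger binding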
Each record here notes measured Percent Control.
Just the number please, in %, no unit attached.

Would you please look over these solved cases?
MOLECULE: COc1ccc(COc2ccc(Cc3cnc(N)nc3N)cc2OC)cc1 [GW632580X]
UNIT_STRING: %
Percent Control: 100
//
MOLECULE: CC1=C(C(=O)Nc2ccc3[nH]ncc3c2)C(c2ccc3ccccc3c2)CC(=O)N1 (centres unmarked) [GSK270822A]
UNIT_STRING: %
Percent Control: 98
//
MOLECULE: O=C1Nc2ccc(C(=O)c3ccco3)cc2C1=Cc1cc(Cl)c(O)c(Cl)c1 [GW406108X]
UNIT_STRING: %
Percent Control: 100
//
MOLECULE: NS(=O)(=O)c1ccc(N/N=C2\C(=O)Nc3ccc(C(=O)NCc4ccncc4)cc32)cc1 [GW300657X]
UNIT_STRING: %
Percent Control: 96

Turning now to a further record.
I have this molecule here, CCS(=O)(=O)c1ccc(OC)c(Nc2ncc(-c3cccc(F)c3)o2)c1 [GW621970X] , and I need its recorded Percent Control.
100

* * *

test system: MAST1; settings: Compound Concentration (nM):1000
Define the label as satisfied when Percent Control is strictly less than 80% and as not satisfied in all remaining cases.

COMPOUND: C[C@@H](Oc1cc(-n2cnc3ccc(OC4CCN(C)CC4)cc32)sc1C(N)=O)c1ccccc1Cl [GSK579289A]
CATEGORY: satisfied

Regarding O=C(Nc1n[nH]c2nc(-c3ccc(O)cc3)c(Br)cc12)C1CC1 [SB-725317] , kindly confirm whether its Percent Control is beneath 80%.
not satisfied

Threshold test, Percent Control < 80%: Nc1ncnc2occ(-c3ccc(NC(=O)Nc4cc(C(F)(F)F)ccc4F)cc3)c12 [GW770249X]
not satisfied

In the record for CCS(=O)(=O)c1ccc(OC)c(Nc2ncc(-c3cccc(F)c3)o2)c1 [GW621970X] , is Percent Control less than 80%?
not satisfied

State whether 80% exceeds Percent Control recorded for Cl.O=S1CCN(Cc2ccc(-c3ccc4ncnc(Nc5ccc(OCc6ccccc6)c(F)c5)c4c3)o2)CC1 [GW576924A] .
satisfied

Consider the compound CC1=C(C(=O)Nc2ccc3[nH]ncc3c2)C(c2ccc(Cl)c(Cl)c2)CC(=O)N1 (stereo not shown) [GSK299115A] . Is its Percent Control strictly less than 80%?
satisfied

Please let me know if COc1cc(N2CCN(C(C)C)CC2)ccc1Nc1nc(Nc2ccc(F)cc2C(=O)NC[C@@H](O)CO)c2cc[nH]c2n1 [GSK1392956A] shows Percent Control below 80%.
satisfied

* * *

Parameter Percent Control: see the listing below.
tested on: TESK1; details: Compound Concentration (nM):1000
API: value field is a number in %; no unit string.

Please review the following examples before continuing.
COMPOUND: COc1ccc2[nH]c3c4[nH]c5ccc(OC)cc5c4c4c(c3c2c1)C(=O)NC4=O [GW296115X]
UNIT_STRING: %
Percent Control: 90
//
COMPOUND: CCc1ccc(Oc2nccc(-c3c(-c4ccc(F)cc4)ncn3C3CCNCC3)n2)cc1 [SB-242719]
UNIT_STRING: %
Percent Control: 99
//
COMPOUND: NS(=O)(=O)c1ccc(N/N=C2\C(=O)Nc3ccc(Cl)cc32)cc1 [GW280670X]
UNIT_STRING: %
Percent Control: 100
//
COMPOUND: NS(=O)(=O)c1ccc(Nc2ncc(-c3ccccc3)o2)cc1 [GW572399X]
UNIT_STRING: %
Percent Control: 100
//
COMPOUND: COc1cccc(-n2ncc3c(N/N=C/c4ccncc4)ncnc32)c1 [GW784752X]
UNIT_STRING: %
Percent Control: 85

Entry COc1cc2ncn(-c3cc(O[C@H](C)c4ccccc4Cl)c(C(N)=O)s3)c2cc1OC [GSK237701A] , system TESK1: what Percent Control was measured?
100

Recall the recorded Percent Control for Cl.O=S1CCN(Cc2ccc(-c3ccc4ncnc(Nc5ccc(OCc6ccccc6)c(F)c5)c4c3)o2)CC1 [GW576924A] with TESK1 and state it.
100

For TESK1, provide Percent Control of CCn1c(-c2nonc2N)nc2c(C#CC(C)(C)O)nc(OCCNC)cc21.Cl [GSK949675] please.
100

Request - read-out Percent Control | tested on TESK1 | compound CCS(=O)(=O)c1ccc(OC)c(Nc2ncc(-c3cccc(F)c3)o2)c1 [GW621970X]
89

* * *

tested on: CSNK1E; conditions: Compound Concentration (nM):1000
PROPERTY_NAME: Percent Control (%)
Give the value, in units of %, as a plain number.

MOLECULE: NS(=O)(=O)c1ccc(N/N=C2\C(=O)Nc3ccc(C(=O)NCCc4c[nH]cn4)cc32)cc1 [GW300660X]
PROPERTY_NAME: Percent Control
NUMBER: 100
//
MOLECULE: COc1ccc2[nH]c3c4[nH]c5ccc(OC)cc5c4c4c(c3c2c1)C(=O)NC4=O [GW296115X]
PROPERTY_NAME: Percent Control
NUMBER: 52
//
MOLECULE: CCS(=O)(=O)c1ccc(OC)c(Nc2ncc(-c3cccc(OC)c3)o2)c1 [GW580509X]
PROPERTY_NAME: Percent Control
NUMBER: 85

Here is another molecule to look at.
Value lookup for Percent Control; key = O=C1Nc2ccc(C(=O)c3ccco3)cc2C1=Cc1cc(Cl)c(O)c(Cl)c1 [GW406108X]
100

* * *

tested on: ERN1; details: Compound Concentration (nM):1000
PROPERTY_NAME: Percent Control (%)
Enter your answer as a number in %; do not include the unit.

Consider the following illustrative entries.
COMPOUND: CN1CCN(C(=O)c2ccc(NC(=O)Nc3ccc(N(C)c4ccnc(Nc5ccc(CS(C)(=O)=O)cc5)n4)cc3)cc2)CC1.Cl [GW830263A]
NUMBER: 25
--
COMPOUND: CC(C)COC(=O)c1ccc2c(c1)/C(=C/Nc1ccc(S(N)(=O)=O)cc1)C(=O)N2 [GW416981X]
NUMBER: 100

# Percent Control lookup, item CCS(=O)(=O)c1ccc(OC)c(Nc2ncc(-c3cccc(F)c3)o2)c1 [GW621970X]
100

* * *

tested on: FLT3(ITD); details: Compound Concentration (nM):1000
Items are presented alongside their recorded Percent Control.
Provide only the numeric value, understood in %.

Worked cases, Percent Control given:
MOLECULE: CCn1c(-c2nonc2N)nc2c(C#CC(C)(C)O)nc(OCCNC)cc21.Cl
Percent Control [%]: 100
--
MOLECULE: C[C@@H](Oc1cc(-n2cnc3ccc(OC4CCN(C)CC4)cc32)sc1C(N)=O)c1ccccc1Cl [GSK579289A]
Percent Control [%]: 38

Shifting focus to the molecule that follows.
What does the record list as Percent Control for COc1ccc2cc(-c3c(-c4ccncc4)nc(-c4ccc(S(C)(=O)=O)cc4C)n3C)ccc2c1 ?
100

* * *

Catalogue of Percent Control readings, one per entry.
tested on: EPHA1; conditions: Compound Concentration (nM):1000
Just the number in %, nothing appended.

The examples below pair each entry with its known result.
MOLECULE: CN1CCN(C(=O)c2ccc(NC(=O)Nc3ccc(N(C)c4ccnc(Nc5ccc(CS(C)(=O)=O)cc5)n4)cc3)cc2)CC1.Cl [GW830263A]
UNIT_STRING: %
Percent Control: 56
--
MOLECULE: NS(=O)(=O)c1ccc(Nc2ncc(-c3ccccc3)o2)cc1 [GW572399X]
UNIT_STRING: %
Percent Control: 100
--
MOLECULE: COc1ccc2[nH]c3c4[nH]c5ccc(OC)cc5c4c4c(c3c2c1)C(=O)NC4=O [GW296115X]
UNIT_STRING: %
Percent Control: 93
--
MOLECULE: CN(C)c1cc2c(Nc3ccc4c(cnn4Cc4ccccc4)c3)ncnc2cn1 [GW282974X]
UNIT_STRING: %
Percent Control: 89
--
MOLECULE: CC1=C(C(=O)Nc2ccc3[nH]ncc3c2)C(c2ccc(Cl)c(Cl)c2)CC(=O)N1 (stereo not drawn) [GSK299115A]
UNIT_STRING: %
Percent Control: 100

Fill in the blank: the reported Percent Control of NS(=O)(=O)c1ccc(N/N=C2\C(=O)Nc3ccc(Cl)cc32)cc1 [GW280670X] is ____.
100

* * *

system: CAMK4; conditions: Compound Concentration (nM):1000
PROPERTY_NAME: Percent Control (%)
Quick note: give the figure in %, leave out the unit.

# count of solved cases: 6
COMPOUND: COc1cc(C=NNc2ncnc3c2cnn3-c2ccccc2)ccc1O [GW513184X]
MEASUREMENT_TARGET: CAMK4
UNIT_STRING: %
Percent Control: 100
//
COMPOUND: COc1ccc(COc2ccc(Cc3cnc(N)nc3N)cc2OC)cc1 [GW632580X]
MEASUREMENT_TARGET: CAMK4
UNIT_STRING: %
Percent Control: 100
//
COMPOUND: CN(C)c1cc2c(Nc3ccc4c(cnn4Cc4ccccc4)c3)ncnc2cn1 [GW282974X]
MEASUREMENT_TARGET: CAMK4
UNIT_STRING: %
Percent Control: 100
//
COMPOUND: Cl.O=C(Nc1ccc(Oc2ccc3[nH]c(NC(=O)c4ccccc4)nc3c2)cc1)Nc1cc(C(F)(F)F)ccc1F [GW709042A]
MEASUREMENT_TARGET: CAMK4
UNIT_STRING: %
Percent Control: 100
//
COMPOUND: O=C1Nc2ccc(C(=O)c3ccco3)cc2C1=Cc1cc(Cl)c(O)c(Cl)c1 [GW406108X]
MEASUREMENT_TARGET: CAMK4
UNIT_STRING: %
Percent Control: 100
//
COMPOUND: CCS(=O)(=O)c1ccc(OC)c(Nc2ncc(-c3cccc(F)c3)o2)c1 [GW621970X]
MEASUREMENT_TARGET: CAMK4
UNIT_STRING: %
Percent Control: 100

I'd like to know its Percent Control. The compound in question is COc1ccc2cc(-c3c(-c4ccncc4)nc(-c4ccc(S(C)(=O)=O)cc4C)n3C)ccc2c1
87

Requested field: Percent Control. Item: COc1cc(C)c(N(C)C(=O)CN(C)C)cc1Nc1nc(Nc2cccc(F)c2C(N)=O)c2cc[nH]c2n1
80

Entry O=C(Nc1n[nH]c2nc(-c3ccc(O)cc3)c(Br)cc12)C1CC1 : reported Percent Control = ?
100

Requested field: Percent Control. Item: NS(=O)(=O)c1ccc(N/N=C2\C(=O)Nc3ccc(-c4cnco4)cc32)cc1
100

Name the recorded Percent Control for C[C@@H](Oc1cc(-n2cnc3ccc(OC4CCN(C)CC4)cc32)sc1C(N)=O)c1ccccc1Cl [GSK579289A] .
100
